- measurement target: T1, recombinant human EGFR extracellular domain with 6xHis (human, UniProt P00533 25-645)
- T1 construct: In-house produced; also called 6xHis EGFR ECD; soluble human EGFR ECD; not shown: 6xHis tag
- experiment description: SPR competition, competitor Erbitux
Provide the reported % inhibition of each item.
Answers are plain numbers, in %.

[[record]]
binder = "antibody 992 (antibody, human IgG1, kappa, V domains shown, Chimeric mouse/human IgG1 kappa; the VL entry includes the human kappa constant region) VH: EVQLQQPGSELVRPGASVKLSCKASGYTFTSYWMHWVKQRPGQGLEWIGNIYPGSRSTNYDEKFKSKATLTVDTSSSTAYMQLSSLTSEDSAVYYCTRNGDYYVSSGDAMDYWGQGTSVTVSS VL: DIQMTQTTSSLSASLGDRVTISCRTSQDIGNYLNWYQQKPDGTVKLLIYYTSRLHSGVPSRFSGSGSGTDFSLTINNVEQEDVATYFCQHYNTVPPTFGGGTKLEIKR"
measured_number = 90


Now consider the entry below.
Dear colleague, please send me the reported % inhibition for antibody 1257 (antibody, human IgG1, kappa, V domains shown, Chimeric IgG1 kappa) VH: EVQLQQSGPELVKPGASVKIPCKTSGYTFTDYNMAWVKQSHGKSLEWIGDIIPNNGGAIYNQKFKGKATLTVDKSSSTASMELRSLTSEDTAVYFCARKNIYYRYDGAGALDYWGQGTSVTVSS VL: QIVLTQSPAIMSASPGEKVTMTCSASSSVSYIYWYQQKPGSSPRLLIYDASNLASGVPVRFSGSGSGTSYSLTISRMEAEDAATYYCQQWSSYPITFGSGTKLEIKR when you can.
0
